Reported log2 (Sample B/Sample A) values for a set of binders
test.target: T1, native human ESRRG protein (Estrogen-receptor related receptor gamma) (human, UniProt P62508 229-458, limits assumed)
T1 construct: the screened protein is called 'native human ESRRG protein'; also called ESSRG; ERRγ
T1 sequence (looked up): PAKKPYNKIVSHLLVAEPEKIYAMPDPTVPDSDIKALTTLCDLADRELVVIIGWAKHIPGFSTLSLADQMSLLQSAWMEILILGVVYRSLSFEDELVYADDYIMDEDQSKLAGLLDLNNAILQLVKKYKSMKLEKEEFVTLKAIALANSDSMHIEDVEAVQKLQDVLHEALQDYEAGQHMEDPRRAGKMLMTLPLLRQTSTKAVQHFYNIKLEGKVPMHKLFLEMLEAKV
test.name: peptide microarray, Iteration 1; bound ESRRG detected with fluorescent anti-ESRRG mAb
Where no end group is shown, it is not given here.

Previously resolved entries follow.
{"columns": ["binder", "log2 (Sample B/Sample A)"],
 "data": [
  ["Ac-ANNSWLLH", 5.97],
  ["Ac-NIKVHANN", 6.58]
]}

Would you mind telling me what log2 (Sample B/Sample A) value was observed for Ac-AANMLLLL ?
5.52

Lookup Ac-ANNILLLH
6.34
